These data points were gathered from PubChem BioAssay AID651582.

- assayText: inhibitors of triacylglycerol accumulation, primary screen, cell-based, uHTS, fluorescence, H9c2 (AID 651582)
- conditionsUsed: H9c2 cells, Nile Red lipid (TAG) fluorescence, at 12.5 µM, cells loaded with 200 µM oleic acid; measured here: DAPI nuclei count viability
Out of some 230,000 compounds screened, about 1,500 (0.65%) were called active. The full list was thinned out, with actives kept by preference.
// NB: equality with -10% counts as false; only DAPI nuclei signal change (viability), lower = more cytotoxic strictly below is true

>  <smiles>
CN(Cc1ccc(CNC[C@H]2O[C@@H](n3cnc4c(N)ncnc43)[C@H](O)[C@@H]2O)o1)S(C)(=O)=O

>  <cat>
false

$$$$
>  <smiles>
COc1ccc(-c2cc(C(F)(F)F)nc(S(C)(=O)=O)n2)cc1OC

>  <cat>
true

$$$$
>  <smiles>
Cc1cccc(NC(=O)c2cccc(C(F)(F)F)c2)c1

>  <cat>
true

$$$$
>  <smiles>
CCOC(=O)c1cc(-c2sc(NC(=O)c3ccccc3)nc2C)n(Cc2ccccc2)n1

>  <cat>
false

$$$$
>  <smiles>
COc1ccc(-c2cc(-c3ccc(N)cc3)nc(N)c2C#N)cc1OC

>  <cat>
false

$$$$

----------
- assayText: inhibitors of triacylglycerol accumulation, primary screen, cell-based, uHTS, fluorescence, H9c2 (AID 651582)
- conditionsUsed: H9c2 cells, Nile Red lipid (TAG) fluorescence, at 12.5 µM, cells loaded with 200 µM oleic acid
The whole screen tested about 230,000 compounds, of which about 1,500 (0.65%) were called active.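 Rule for the calls: active = pattern-corrected inhibition of lipid staining of at least 50% with the nuclear-stain viability signal not falling by more than 50%; inactive = the rest, inconclusive results apart.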 For the sample, actives were picked, then their nearest neighbours and some compounds at random.
Outcomes: active, inactive

>  <molecule>
CN(CC(=O)Nc1c(Cl)cccc1Cl)C(=O)CC1OC(=O)c2ccccc21 (stereo unspecified)

>  <cat>
inactive

$$$$
>  <molecule>
COc1ccc(/C=C2/CCCc3ccccc3C2=O)cc1

>  <cat>
active

$$$$
>  <molecule>
CC(C)OC(=O)c1ccc(NCc2cc(O)ccc2O)cc1Cl

>  <cat>
inactive

$$$$
>  <molecule>
O=[N+]([O-])c1ccc(C=NN=Cc2ccc([N+](=O)[O-])cc2)cc1

>  <cat>
inactive

$$$$
>  <molecule>
O=C1/C(=C/c2cccs2)CCc2ccccc21

>  <cat>
inactive

$$$$
>  <molecule>
CCCCN1C(=O)/C(=C/C=C2/C=Cc3ccccc3N2CC)SC1=S

>  <cat>
active

$$$$

----------
- assayText: inhibitors of triacylglycerol accumulation, primary screen, cell-based, uHTS, fluorescence, H9c2 (AID 651582)
- conditionsUsed: H9c2 cells, Nile Red lipid (TAG) fluorescence, at 12.5 µM, cells loaded with 200 µM oleic acid
Out of some 230,000 compounds screened, about 1,500 (0.65%) were called active.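 Rule for the calls: active = pattern-corrected inhibition of lipid staining of at least 50% with the nuclear-stain viability signal not falling by more than 50%; inactive = the rest, inconclusive results apart.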 Shown is part of a subset that was picked to be rich in actives.
Outcomes: True (active), False (inactive)

>  <compound>
CS(=O)(=O)c1ccc(C(=O)NNC(=O)c2cccs2)cc1

>  <cat>
False

$$$$
>  <compound>
Cc1ccc(NC(=O)CN(C)C(=O)c2ccc(Cl)c(S(=O)(=O)NCc3ccco3)c2)cc1

>  <cat>
False

$$$$
>  <compound>
C=CCC[C@H](Cc1ccc(F)cc1)C(=O)OC[C@H](C)NC(=O)[C@H](CC=C)CC(=O)N(CCO)Cc1ccccc1

>  <cat>
False

$$$$
>  <compound>
O=C(COC(=O)c1cccc(Cl)c1Cl)NC1CCCCCC1

>  <cat>
False

$$$$
>  <compound>
O=C(CCN1CCN(C/C=C/c2ccccc2)CC1)Nc1cccc(F)c1

>  <cat>
False

$$$$
>  <compound>
O=C(Nc1ccccc1)Oc1cccc2cccnc12

>  <cat>
True

$$$$
>  <compound>
CN(CC1CCCO1)S(=O)(=O)c1ccc(C(=O)Nc2ccc([N+](=O)[O-])cc2)cc1 (stereo not given)

>  <cat>
False

$$$$
>  <compound>
CC1(c2ccccc2)CC(C)(C)N(C(=O)c2cc([N+](=O)[O-])cc([N+](=O)[O-])c2)c2ccccc21 (stereo not given)

>  <cat>
True

$$$$
>  <compound>
C=CCC[C@@H](Cc1ccc(F)cc1)C(=O)OC[C@H](Cc1c[nH]c2ccccc12)NC(=O)[C@@H](CC=C)CC(=O)N(CCO)Cc1ccccc1

>  <cat>
True

$$$$
>  <compound>
Cn1nccc1NC(=O)Nc1ccc(OC(F)(F)F)cc1

>  <cat>
False

$$$$
>  <compound>
C=CC(=O)Nc1ccc(Nc2ccnc(Nc3ccc(N4CCN(C)CC4)cc3)n2)cc1

>  <cat>
True

$$$$
>  <compound>
CCOC(=O)Cc1ncccc1C(=O)Nc1ccc(OC(F)(F)F)cc1

>  <cat>
False

$$$$
>  <compound>
COc1ccc(NC(=O)CN(C)CC(=O)Nc2cccc(C(F)(F)F)c2)cc1

>  <cat>
False

$$$$
>  <compound>
O=C(Nc1ccccc1Cl)Nc1cccc2cccnc12

>  <cat>
False

$$$$
>  <compound>
CC(C)(C)OC(=O)C[C@@H]1C/C=C\C[C@@H](CC(=O)NCCO)C(=O)N[C@H](Cc2c[nH]c3ccccc23)COC1=O

>  <cat>
False

$$$$
>  <compound>
Cc1ccc(N(Cc2ccccc2O)C(=O)c2ccccc2F)cc1

>  <cat>
False

$$$$
>  <compound>
COc1ccc(Nc2cc(=O)oc3ccccc23)cc1

>  <cat>
True

$$$$
>  <compound>
O=C(Cc1ccccc1)N1CCN(S(=O)(=O)c2ccc([N+](=O)[O-])cc2)CC1

>  <cat>
False

$$$$
>  <compound>
CN(C)CCCN(C(=O)COc1ccccc1)c1nc2c(Cl)cccc2s1

>  <cat>
False

$$$$
>  <compound>
CC(C)C(=O)N1CCN(c2nc(-c3ccccc3)c3c(c2C#N)CC(C)(C)OC3)CC1

>  <cat>
False

$$$$
>  <compound>
CCN(CC)S(=O)(=O)c1ccc(N2CCOCC2)c(NC(=O)c2ccc(=O)n(C)n2)c1

>  <cat>
False

$$$$
>  <compound>
O=C(O)c1ccc(NN=CC2=C(N3CCOCC3)/C(=C/c3ccccc3)CC2)cc1

>  <cat>
False

$$$$
>  <compound>
CNC(=O)NC(=O)C(C)N1CCN(C/C=C/c2ccccc2)CC1 (stereo not given)

>  <cat>
False

$$$$
>  <compound>
C=CCC[C@H](Cc1ccc(F)cc1)C(=O)OC[C@@H](Cc1c[nH]c2ccccc12)NC(=O)[C@H](CC=C)CC(=O)N[C@H](CO)Cc1ccccc1

>  <cat>
False

$$$$
>  <compound>
COc1ccc(-c2ccc3c(c2)C2CC3CCN2CCC#N)cc1 (stereo not given)

>  <cat>
False

$$$$
>  <compound>
Cc1cccc(N2CCN(c3ccc(NC(=O)/C=C\C(=O)O)cc3)CC2)c1

>  <cat>
False

$$$$
>  <compound>
CC(C)C(=O)N1CCC2(CC1)Oc1ccc(F)cc1C(=O)C21CC(c2ccccc2)=NO1 (stereo not given)

>  <cat>
True

$$$$
>  <compound>
COc1ccc(C(CNC(=O)c2cccc(S(=O)(=O)Nc3ccc(Br)cc3)c2)N(C)C)cc1 (stereo not given)

>  <cat>
False

$$$$
>  <compound>
CC1CCN(C(=S)c2cccc([N+](=O)[O-])c2)CC1

>  <cat>
False

$$$$
>  <compound>
CCCNC(=O)c1cc(C2CCCCN2S(=O)(=O)c2cn(C)cn2)on1 (stereo not given)

>  <cat>
False

$$$$
>  <compound>
O=C(Nc1ccc(OC(F)(F)F)cc1)c1ccc2c(c1)no[n+]2[O-]

>  <cat>
True

$$$$
>  <compound>
Cc1ccc(S(=O)(=O)N2CCN(C(=O)c3cc(S(=O)(=O)N4CCOCC4)ccc3F)CC2)cc1

>  <cat>
False

$$$$
>  <compound>
CN1CCN(c2ccc(NC(=O)COc3ccc(Cl)cc3Cl)cc2)CC1

>  <cat>
False

$$$$
>  <compound>
O=C(Nc1ccc2oc(-c3ccc4ccccc4c3)nc2c1)c1cccs1

>  <cat>
False

$$$$
>  <compound>
COc1ccc(NC(=O)C(=O)NCC(=O)Nc2cccc(C(F)(F)F)c2)cc1

>  <cat>
False

$$$$
>  <compound>
Cc1nc2c(OCC(=O)C(C)(C)C)cccn2c1N(C)Cc1cccs1

>  <cat>
False

$$$$
>  <compound>
O=C(Cc1cccc2ccccc12)Nc1ccc2oc(-c3ccccc3)nc2c1

>  <cat>
True

$$$$
>  <compound>
CCCC[C@H]1COCCS(=O)(=O)N1Cc1cccc(Cl)c1

>  <cat>
False

$$$$
>  <compound>
O=C(NCc1nnnn1-c1ccc(Cl)cc1)c1ccc2c(c1)OCO2

>  <cat>
False

$$$$
>  <compound>
O=c1cc(N2CCN(Cc3ccccc3)CC2)c(-c2ccccc2)n[nH]1

>  <cat>
False

$$$$

----------
- assayText: inhibitors of triacylglycerol accumulation, primary screen, cell-based, uHTS, fluorescence, H9c2 (AID 651582)
- conditionsUsed: H9c2 cells, Nile Red lipid (TAG) fluorescence, at 12.5 µM, cells loaded with 200 µM oleic acid
Among all 230,000 compounds or so, about 1,500 (0.65%) were called active.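 How the source made its calls: active means pattern-corrected inhibition of lipid staining of at least 50% with the nuclear-stain viability signal not falling by more than 50%; inactive means the rest, inconclusive results apart.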 Only a selection was taken, and actives are over-represented in it overall.
Outcomes: T (active), F (inactive)

>  <molecule>
Cc1ccsc1/C=N/Nc1ccc(Cl)nn1

>  <cat>
F

$$$$
>  <molecule>
CN(C)S(=O)(=O)c1cccc(NC(=S)NCc2ccc3c(c2)OCO3)c1

>  <cat>
F

$$$$
>  <molecule>
Cc1ccc(/C=N/NC(=S)NC2CCCCC2)o1

>  <cat>
F

$$$$
>  <molecule>
O=c1c(Cl)c(NC2CC2)cnn1-c1ccccc1

>  <cat>
F

$$$$
>  <molecule>
COc1ccc(-c2ccc(CN3C(CC(C)C)C(=O)N(Cc4cn(CC5CCCCC5)nn4)CCS3(=O)=O)cc2)cc1 (configuration not stated)

>  <cat>
F

$$$$
>  <molecule>
COc1ccc(Cc2nnc(N/N=C/c3ccccc3O)[nH]c2=O)cc1OC

>  <cat>
T

$$$$
>  <molecule>
Cc1ccc(/C=N/NC(=S)Nc2cccc(S(=O)(=O)N(C)C)c2)o1

>  <cat>
T

$$$$
>  <molecule>
O=C(NN=Cc1ccccc1)c1ccccc1

>  <cat>
F

$$$$
>  <molecule>
Clc1ccc(N/N=C/c2cccs2)nn1

>  <cat>
F

$$$$
>  <molecule>
CN(/N=C/c1ccccc1)C(=S)c1ccccc1

>  <cat>
T

$$$$
>  <molecule>
CCN(c1ccccc1)S(=O)(=O)c1ccc(C(=O)Nc2ccccc2OC)cc1

>  <cat>
F

$$$$
>  <molecule>
Nc1nnc(SCC(=O)Nc2ccc3nc(SCC(=O)Nc4ccccc4)sc3c2)s1

>  <cat>
F

$$$$
>  <molecule>
CC(=O)c1cccc(-c2ccc(CN3C(CC(C)C)C(=O)N(Cc4cn(CC5CCCCC5)nn4)CCS3(=O)=O)cc2)c1 (configuration not stated)

>  <cat>
T

$$$$
>  <molecule>
C=CCn1c(CSc2nc3ccccc3s2)nnc1SCC(=O)NCc1ccco1

>  <cat>
F

$$$$
>  <molecule>
CC[C@]1(c2ccccc2OC)C(=O)N(C(=O)OC)N1C(=O)OC

>  <cat>
F

$$$$
>  <molecule>
CN(O)C(=S)c1ccccc1

>  <cat>
F

$$$$
>  <molecule>
CC(C)CC1C(=O)N(Cc2cn(CC3CCCCC3)nn2)CCS(=O)(=O)N1Cc1ccc(-c2ccc(Cl)cc2)cc1 (configuration not stated)

>  <cat>
F

$$$$
>  <molecule>
CC(=O)NC(c1ccccc1)c1nc(-c2cccc(C(C)C)c2)cs1 (configuration not stated)

>  <cat>
F

$$$$
>  <molecule>
CCc1nc2ccc(C(=O)Nc3cccc(OC)c3)cn2c1N(CCC(C)C)CCN(C)C

>  <cat>
F

$$$$
>  <molecule>
O=C(CSc1nc(Nc2ccccc2)nc(N2CCOCC2)n1)Nc1cc(Cl)ccc1O

>  <cat>
F

$$$$
>  <molecule>
Cc1ccc(OCCNC(=O)c2cccc(S(=O)(=O)N3CCN(Cc4ccccc4)CC3)c2)cc1

>  <cat>
F

$$$$
>  <molecule>
CCOc1ccc(CN2CCN(Cc3ccc4cc(F)ccc4n3)CC2CCO)cc1 (configuration not stated)

>  <cat>
F

$$$$
